pKd: −log10 of the molar value.
Dear all, I have gathered published pKd values for Galectin-9 (Homo sapiens, UniProt O00182); the list follows.
measurementName: pKd

[[record]]
compound = "CNC(=O)c1cn([C@H]2[C@@H](O)[C@@H](CO)O[C@@H](SC)[C@@H]2O)nn1"
value = 2.96


A = CS[C@@H]1O[C@H](CO)[C@H](O)[C@H](n2cc(C(=O)NCCCO)nn2)[C@H]1O
B = COc1cc(OC)cc(C(=O)N[C@@H]2[C@@H](O)[C@@H](S[C@@H]3O[C@H](CO)[C@H](O)[C@H](NC(=O)c4cc(OC)cc(OC)c4)[C@H]3O)O[C@H](CO)[C@@H]2O)c1
C = CC(=O)N[C@@H]1[C@@H](O)[C@H](O[C@@H]2O[C@H](CO)[C@H](O)[C@H](O)[C@H]2O)[C@@H](CO)O[C@H]1O
D = O=C(NCCc1ccccc1)c1cn([C@H]2[C@@H](O)[C@@H](CO)O[C@@H](S[C@@H]3O[C@H](CO)[C@H](O)[C@H](n4cc(C(=O)NCCc5ccccc5)nn4)[C@H]3O)[C@@H]2O)nn1
E = CO[C@H]1O[C@H](CO)[C@H](O)[C@H](OCc2cc3ccccc3o/c2=N\S(=O)(=O)c2ccc(C)cc2)[C@H]1OC(C)=O
## Task Give the ascending ranking of the items by reported pKd. Sort and list the labels as requested.
## Result A, C, E, B, D
